Biological target: Cathepsin B (Homo sapiens)
Experiment: Inhibition of human cathepsin B using Suc-LLVY-AMC as substrate assessed as remaining enzyme activity at 20 uM incubated for 15 mins prior to substrate addition measured for 30 mins by fluorescence assay
Active and inactive are the calls of the source. No cut-off for these calls is given here.
parameter: inhibition

C[C@H](NC(=O)[C@H](Cc1ccc(OCc2ccccc2)cc1)NC(=O)CCCCCNC(=O)CCCCCNC(=O)CCCCCNC(=O)CCCCC(=O)NCCCCCC(=O)NCCCCCC(=O)NCCCCCC(=O)N[C@@H](Cc1ccc(OCc2ccccc2)cc1)C(=O)N[C@@H](C)C(=O)N[C@@H](C[C@]1(O)C(=O)Nc2ccccc21)C(=O)NCc1ccccc1)C(=O)N[C@@H](C[C@]1(O)C(=O)Nc2ccccc21)C(=O)NCc1ccccc1 ... inactive
C[C@H](NC(=O)[C@H](Cc1ccc(OCc2ccccc2)cc1)NC(=O)CCCCCNC(=O)CCCCCNC(=O)CCCCCNC(=O)CCCCC(=O)N[C@@H](Cc1ccc(OCc2ccccc2)cc1)C(=O)N[C@@H](C)C(=O)N[C@@H](C[C@]1(O)C(=O)Nc2ccccc21)C(=O)NCc1ccccc1)C(=O)N[C@@H](C[C@]1(O)C(=O)Nc2ccccc21)C(=O)NCc1ccccc1 ... inactive
C[C@H](NC(=O)[C@H](Cc1ccc(OCc2ccccc2)cc1)NC(=O)CCCCCNC(=O)CCCCCNC(=O)CCCCCNC(=O)OC(C)(C)C)C(=O)N[C@@H](C[C@]1(O)C(=O)Nc2ccccc21)C(=O)NCc1ccccc1 ... inactive
